# Target or system: BACE1 (Homo sapiens)
# Construct: endogenous in cells
# Sequence (P56817 46-501): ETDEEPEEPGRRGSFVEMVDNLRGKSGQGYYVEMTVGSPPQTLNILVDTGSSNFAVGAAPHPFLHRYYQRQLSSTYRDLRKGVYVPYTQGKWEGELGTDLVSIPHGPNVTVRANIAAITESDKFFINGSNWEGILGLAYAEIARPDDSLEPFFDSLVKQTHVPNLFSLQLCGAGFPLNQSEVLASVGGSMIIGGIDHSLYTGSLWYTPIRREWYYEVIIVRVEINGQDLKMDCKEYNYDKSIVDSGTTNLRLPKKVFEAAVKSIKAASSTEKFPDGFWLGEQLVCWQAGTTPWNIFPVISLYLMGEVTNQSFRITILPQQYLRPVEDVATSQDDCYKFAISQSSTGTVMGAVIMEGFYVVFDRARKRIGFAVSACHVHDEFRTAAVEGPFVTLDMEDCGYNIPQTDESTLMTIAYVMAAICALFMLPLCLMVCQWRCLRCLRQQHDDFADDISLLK
# Experiment description: Cellular Aβ-lowering assay (Abeta 40 AlphaLISA, HEK293 APP cells)
# Protocol conditions: 18-20 hrs incubation, Aβ 40 in culture supernatant, read-out: BACE1 cell act. Aβ40 IC50
Parameter IC50: see the listing below.
Please state the figure in nM; there is no need to write the unit.

# Compound, IC50 / nM
records = [
    ("CN=[S@]1(=O)C[C@@](C)(c2cc(-c3cc(-c4cnc(OCC(F)F)cn4)no3)ccc2F)N=C(N)C1(C)C [Example 11, 2,2,2-trifluoroacetate]", 51),
    ("CC1(C)C(N)=N[C@](C)(c2cc(-c3cc(-c4ncc(Cl)cn4)no3)ccc2F)C[S@@]1(=O)=NCC(F)(F)F [Example 38, 2,2,2-trifluoroacetate]", 13),
    ("CN=[S@@]1(=O)C[C@@](C)(c2cc(-c3cc(-c4ncc(OC)cn4)no3)ccc2F)N=C(N)C12CCCC2 [Example 29, 2,2,2-trifluoroacetate]", 20),
    ("CC1(C)C(N)=N[C@](C)(c2cc(-c3cc(-c4ncc(Cl)cn4)no3)ccc2F)C[S@]1(=O)=NCC(F)(F)F [Example 40, 2,2,2-trifluoroacetate]", 37),
    ("CN=[S@@]1(=O)C[C@@](C)(c2cc(-c3cc(-c4cnc(OCC(F)F)cn4)no3)ccc2F)N=C(N)C12CCCC2", 104),
    ("CN=[S@@]1(=O)C[C@@](CF)(c2cc(-c3cc(-c4cnc(OCC(F)F)cn4)no3)ccc2F)N=C(N)C1(C)C [Example 4, 2,2,2-trifluoroacetate]", 111),
]

Proceed to the following item.
Q: Form field: reported IC50 of CN=[S@@]1(=O)C[C@@](C)(c2cc(-c3cc(-c4ncc(OC)cn4)no3)ccc2F)N=C(N)C1(C)C
Ans: 3

These measurements were taken from patent US10047081B2.
